measured target: Nan–Iav TRPV channel (Drosophila melanogaster, UniProt Q9VUD5+Q9W3W0)
Construct: iav cDNA in pCR4-TOPO, synthesized nan cDNA in pcDNA3.1; cRNAs co-injected in Xenopus oocytes; heteromeric channel
Sequence (Q9VUD5 1-833): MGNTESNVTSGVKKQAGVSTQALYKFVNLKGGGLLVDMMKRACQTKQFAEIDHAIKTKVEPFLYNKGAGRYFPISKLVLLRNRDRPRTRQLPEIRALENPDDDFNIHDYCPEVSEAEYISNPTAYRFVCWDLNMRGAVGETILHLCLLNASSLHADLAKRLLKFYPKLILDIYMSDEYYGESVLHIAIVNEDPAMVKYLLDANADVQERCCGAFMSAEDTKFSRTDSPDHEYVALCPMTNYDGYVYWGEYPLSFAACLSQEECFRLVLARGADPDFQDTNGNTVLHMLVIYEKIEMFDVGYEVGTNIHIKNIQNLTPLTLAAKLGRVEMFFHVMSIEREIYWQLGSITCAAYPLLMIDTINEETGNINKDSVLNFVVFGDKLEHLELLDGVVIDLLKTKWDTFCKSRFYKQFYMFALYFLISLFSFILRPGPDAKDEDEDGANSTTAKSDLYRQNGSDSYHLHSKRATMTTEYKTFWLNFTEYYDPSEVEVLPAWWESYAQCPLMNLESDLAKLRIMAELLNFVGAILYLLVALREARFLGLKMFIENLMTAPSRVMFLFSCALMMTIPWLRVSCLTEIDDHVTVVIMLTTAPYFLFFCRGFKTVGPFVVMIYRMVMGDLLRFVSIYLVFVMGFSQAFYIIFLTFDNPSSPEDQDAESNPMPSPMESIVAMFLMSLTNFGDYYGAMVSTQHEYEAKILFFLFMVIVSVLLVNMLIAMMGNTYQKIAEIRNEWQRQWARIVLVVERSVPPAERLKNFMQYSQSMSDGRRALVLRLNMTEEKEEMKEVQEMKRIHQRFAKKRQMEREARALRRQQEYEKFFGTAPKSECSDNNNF
Sequence (Q9W3W0 1-1123): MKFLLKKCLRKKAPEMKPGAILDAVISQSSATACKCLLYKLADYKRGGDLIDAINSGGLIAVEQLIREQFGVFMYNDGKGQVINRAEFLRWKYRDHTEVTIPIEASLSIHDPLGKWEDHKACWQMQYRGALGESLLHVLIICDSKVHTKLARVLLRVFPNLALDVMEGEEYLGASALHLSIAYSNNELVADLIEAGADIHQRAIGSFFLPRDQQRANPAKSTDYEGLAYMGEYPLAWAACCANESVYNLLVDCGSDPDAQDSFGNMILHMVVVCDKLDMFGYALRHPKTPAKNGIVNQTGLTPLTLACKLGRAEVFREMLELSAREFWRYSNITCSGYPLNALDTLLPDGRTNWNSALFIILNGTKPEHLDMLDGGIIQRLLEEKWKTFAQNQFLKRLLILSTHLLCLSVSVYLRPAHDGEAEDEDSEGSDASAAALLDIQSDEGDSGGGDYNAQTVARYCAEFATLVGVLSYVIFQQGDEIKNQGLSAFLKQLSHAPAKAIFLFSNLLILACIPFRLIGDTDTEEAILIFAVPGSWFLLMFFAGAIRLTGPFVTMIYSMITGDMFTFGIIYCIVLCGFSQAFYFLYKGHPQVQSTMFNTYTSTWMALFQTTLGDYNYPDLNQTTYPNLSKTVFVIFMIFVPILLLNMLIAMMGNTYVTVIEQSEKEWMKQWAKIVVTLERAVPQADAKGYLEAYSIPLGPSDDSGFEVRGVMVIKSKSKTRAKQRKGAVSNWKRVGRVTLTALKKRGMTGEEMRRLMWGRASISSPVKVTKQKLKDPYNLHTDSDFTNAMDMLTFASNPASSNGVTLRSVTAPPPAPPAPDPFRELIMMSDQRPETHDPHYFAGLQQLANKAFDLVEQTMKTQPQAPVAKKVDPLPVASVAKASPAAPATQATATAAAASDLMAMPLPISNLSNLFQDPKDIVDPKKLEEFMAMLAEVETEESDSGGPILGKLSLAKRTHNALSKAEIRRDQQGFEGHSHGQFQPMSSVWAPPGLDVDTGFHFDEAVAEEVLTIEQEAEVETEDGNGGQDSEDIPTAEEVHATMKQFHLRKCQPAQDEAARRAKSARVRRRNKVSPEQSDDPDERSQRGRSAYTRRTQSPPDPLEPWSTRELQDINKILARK
protocol description: two-electrode voltage clamp, Xenopus oocytes, Hill fit
condition notes: read-out: K1/2
experimental endpoint: EC50 (µM)

[[record]]
compound = "NC(=O)c1cccnc1 [nicotinamide]"
readout_number = 14.4


---

measured target: OSM-9–OCR-4 TRPV channel (Caenorhabditis elegans, UniProt G5EBV8+Q9N3Y9)
Construct: untagged cDNAs (osm-9 in pGEMHE, ocr-4 in pOX); cRNAs co-injected in Xenopus oocytes; heterotetramer, likely 2:2
Sequence (G5EBV8 1-937): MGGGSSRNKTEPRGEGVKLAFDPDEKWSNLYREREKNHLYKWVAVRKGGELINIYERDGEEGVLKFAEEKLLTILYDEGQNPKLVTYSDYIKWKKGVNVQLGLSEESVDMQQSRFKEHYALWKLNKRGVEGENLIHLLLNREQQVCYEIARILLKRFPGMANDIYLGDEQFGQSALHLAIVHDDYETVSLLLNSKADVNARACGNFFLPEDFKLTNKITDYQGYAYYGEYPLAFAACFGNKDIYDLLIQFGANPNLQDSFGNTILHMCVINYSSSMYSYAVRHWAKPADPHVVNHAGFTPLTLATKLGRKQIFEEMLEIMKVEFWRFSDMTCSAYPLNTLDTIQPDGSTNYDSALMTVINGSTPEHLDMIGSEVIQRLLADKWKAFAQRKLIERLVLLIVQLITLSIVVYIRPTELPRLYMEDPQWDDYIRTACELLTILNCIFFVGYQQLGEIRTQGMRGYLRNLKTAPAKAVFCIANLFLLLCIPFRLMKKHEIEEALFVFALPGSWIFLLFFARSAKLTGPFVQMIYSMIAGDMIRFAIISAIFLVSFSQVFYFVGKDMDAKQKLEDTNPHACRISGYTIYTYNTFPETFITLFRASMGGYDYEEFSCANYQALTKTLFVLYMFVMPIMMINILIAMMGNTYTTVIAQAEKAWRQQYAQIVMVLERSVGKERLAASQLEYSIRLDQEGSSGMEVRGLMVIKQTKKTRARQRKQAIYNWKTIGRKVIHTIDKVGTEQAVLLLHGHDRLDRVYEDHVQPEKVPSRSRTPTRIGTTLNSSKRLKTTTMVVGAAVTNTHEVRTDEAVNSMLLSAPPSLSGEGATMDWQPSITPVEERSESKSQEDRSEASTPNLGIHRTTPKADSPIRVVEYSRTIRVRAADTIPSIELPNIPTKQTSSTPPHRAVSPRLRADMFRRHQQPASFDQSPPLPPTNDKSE
Sequence (Q9N3Y9 1-756): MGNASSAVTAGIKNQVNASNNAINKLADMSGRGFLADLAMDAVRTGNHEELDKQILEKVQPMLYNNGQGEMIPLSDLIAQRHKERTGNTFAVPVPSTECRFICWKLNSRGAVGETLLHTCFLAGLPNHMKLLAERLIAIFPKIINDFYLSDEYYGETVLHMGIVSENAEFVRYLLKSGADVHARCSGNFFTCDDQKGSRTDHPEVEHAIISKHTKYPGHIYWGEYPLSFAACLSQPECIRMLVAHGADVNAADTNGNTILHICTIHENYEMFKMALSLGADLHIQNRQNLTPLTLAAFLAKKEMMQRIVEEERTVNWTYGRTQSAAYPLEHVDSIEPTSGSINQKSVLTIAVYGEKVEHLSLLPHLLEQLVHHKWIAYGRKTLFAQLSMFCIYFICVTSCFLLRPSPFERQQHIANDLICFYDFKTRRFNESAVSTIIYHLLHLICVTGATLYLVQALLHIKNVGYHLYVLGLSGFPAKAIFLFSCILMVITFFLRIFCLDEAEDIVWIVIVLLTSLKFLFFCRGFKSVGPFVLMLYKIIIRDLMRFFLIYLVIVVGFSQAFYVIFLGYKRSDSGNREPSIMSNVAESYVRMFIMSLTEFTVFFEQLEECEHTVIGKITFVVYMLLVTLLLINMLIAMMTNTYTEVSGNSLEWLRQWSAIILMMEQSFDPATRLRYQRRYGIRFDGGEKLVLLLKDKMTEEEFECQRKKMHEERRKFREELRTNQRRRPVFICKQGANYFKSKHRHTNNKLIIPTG
protocol description: two-electrode voltage clamp, Xenopus oocytes, Hill fit
Type: cell-based
condition notes: read-out: K1/2
pEC50: −log10 of the molar value.
experimental endpoint: pEC50

[[record]]
compound = "NC(=O)c1cccnc1 [nicotinamide]"
experimental_endpoint = "pEC50"
readout_number = 4.20

